This collection of values is drawn from ChEMBL document CHEMBL4371025.

# test description: AUC (0 to 48 hrs) in Sprague-Dawley rat at 1 mg/kg, iv administered as single dose by LC-MS/MS analysis
# Format: ADME, organism-based
# Set-up: dose 1 mg/kg, time < 48 hr, route intravenous
# test parameters: in vivo
Measured AUC(0-t) at 48 h values are reported for all entries that follow.

[
  {
    "compound": "O=C(NC1CCC(=Cc2cccc(Oc3ccc(C(F)(F)F)cn3)c2)CC1)c1ccc(-n2cccn2)nc1 (racemic)",
    "unit": "µM·h",
    "AUC(0-t) at 48 h": 8
  },
  {
    "compound": "O=C(NC1CCC(=Cc2cccc(Oc3ccc(C(F)(F)F)cn3)c2)CC1)c1cnc2[nH]ccc2c1 (racemic)",
    "unit": "µM·h",
    "AUC(0-t) at 48 h": 14.3
  }
]

----------
# System: CYP1A2
# test description: Selectivity ratio of IC50 for CYP1A2 in human liver microsomes to IC50 for rat FFAH expressed in Escherichia coli
# Type: toxicity
# test parameters: read-out: Ratio IC50

[
  {
    "compound": "Nc1ncc(C(=O)N[C@H]2CC/C(=C\\c3cccc(Oc4ccc(C(F)(F)F)cn4)c3)CC2)cn1 (configuration not stated)",
    "test system": "CYP1A2",
    "selectivity ratio": "> 5000"
  },
  {
    "compound": "Cc1cc(C(=O)N[C@H]2CC/C(=C\\c3cccc(Oc4ccc(C(F)(F)F)cn4)c3)CC2)cnc1N (configuration not stated)",
    "test system": "CYP1A2",
    "selectivity ratio": "> 5000"
  }
]

----------
Measured selectivity ratio values are reported for all entries that follow.
# Test system: CYP2C19
# test description: Selectivity ratio of IC50 for CYP2C19 in human liver microsomes to IC50 for human transmembrane domain deficient FFAH expressed in Escherichia coli
# Assay type: toxicity
# test parameters: read-out: Ratio IC50
property: selectivity ratio

[
  {
    "molecule": "Nc1ncc(C(=O)N[C@H]2CC/C(=C\\c3cccc(Oc4ccc(C(F)(F)F)cn4)c3)CC2)cn1 (configuration not stated)",
    "property": "selectivity ratio",
    "readout value": "> 5000"
  },
  {
    "molecule": "Cc1cc(C(=O)N[C@H]2CC/C(=C\\c3cccc(Oc4ccc(C(F)(F)F)cn4)c3)CC2)cnc1N (configuration not stated)",
    "property": "selectivity ratio",
    "readout value": "> 5000"
  }
]

----------
# test description: Oral bioavailability in Sprague-Dawley rat at 10 mg/kg administered as single dose via gavage by LC-MS/MS analysis
# Assay type: ADME, organism-based
# test parameters: in vivo

[
  {
    "molecule": "O=C(N[C@H]1CC/C(=C\\c2cccc(Oc3ccc(C(F)(F)F)cn3)c2)CC1)c1cccnc1 (stereo not given)",
    "bioavailability (%)": 35
  },
  {
    "molecule": "Nc1ccc(C(=O)N[C@H]2CC/C(=C\\c3cccc(Oc4ccc(C(F)(F)F)cn4)c3)CC2)cn1 (stereo not given)",
    "bioavailability (%)": 42
  },
  {
    "molecule": "O=C(NC1CCC(=Cc2cccc(Oc3ccc(C(F)(F)F)cn3)c2)CC1)c1ccc(-n2cccn2)nc1 (racemic)",
    "bioavailability (%)": 1.2
  },
  {
    "molecule": "Cc1cc(C(=O)N[C@H]2CC/C(=C\\c3cccc(Oc4ccc(C(F)(F)F)cn4)c3)CC2)cnc1N (stereo not given)",
    "bioavailability (%)": 46
  },
  {
    "molecule": "Nc1ncc(C(=O)N[C@H]2CC/C(=C\\c3cccc(Oc4ccc(C(F)(F)F)cn4)c3)CC2)cn1 (stereo not given)",
    "bioavailability (%)": 46
  }
]
